Kindly state VQIINK Inhibition IC50 for each of the entries shown.
Target: Ac-VQIINK-NH2 (SEQ ID NO: 23) (N-terminal acetyl (Ac); C-terminal amide (NH2))
Experiment: cell-based or functional assay
Square brackets hold non-standard residues; d marks the D form. Ends that are not written are not given here. dNle = CCCC[C@@H](N)C(=O)O
The figure you give is taken to be in µm; do not add the unit.

Record [dW][dR][dL][dK][dV][dR][dW][dH] [wrlkvrwh] . Reported VQIINK Inhibition IC50: 1.92

Record [dR][dK][dI][dR][dI][dH][dY][dH] [rkirihyh] . Reported VQIINK Inhibition IC50: 5.59

Record [dW][dL][dR][dV][dQ][dV][dK][dW] [wlrvqvkw] . Reported VQIINK Inhibition IC50: 1.08

Record [dW][dF][dK][dI][dK][dL][dE][dL] [wfkiklel] . Reported VQIINK Inhibition IC50: 1.74

Record [dM][dR][dL][dR][dI][dH][dW] [mrlrihw] . Reported VQIINK Inhibition IC50: 1.58

Record [dW][dR][dM][dR][dI][dH][dW] [wrmrihw] . Reported VQIINK Inhibition IC50: 11.7

Record [dL][dK][dI][dK][dI][dH][dY] [lkikihy] . Reported VQIINK Inhibition IC50: 1.96

Record [dF][dR][dI][dR][dI][dH][dH][dF] [fririhhf] . Reported VQIINK Inhibition IC50: 2.02

Record [dV][dR][dW][dW][dW][dR][dL][dK] [vrwwwrlk] . Reported VQIINK Inhibition IC50: 9.47

Record [dL][dK][dI][dR][dI][dH][dY] [lkirihy] . Reported VQIINK Inhibition IC50: 17.6

Record [dW][dK][dV][dQ][dV][dR][dL][dW] [wkvqvrlw] . Reported VQIINK Inhibition IC50: 0.94

Record [dL][dE][dF][dE][dL][dK][dY][dW] [lefelkyw] . Reported VQIINK Inhibition IC50: 1.38

Record [dF][dK][dL][dK][dI][dK][dW] [fklkikw] . Reported VQIINK Inhibition IC50: 2.66

Record [dR][dR][dL][dR][dI][dH][dW] [rrlrihw] . Reported VQIINK Inhibition IC50: 12.1

Record [dE][dL][dK][dI][dV][dW] [elkivw] . Reported VQIINK Inhibition IC50: 6.85

Record [dW][dR][dL][dM][dI][dH][dW] [wrlmihw] . Reported VQIINK Inhibition IC50: 6.58

Record [dW][dR][dL][dR][dI][dH][dA] [wrlriha] . Reported VQIINK Inhibition IC50: 9.75

Record [dW][dL][dK][dI][dV][dW] [wlkivw] . Reported VQIINK Inhibition IC50: 3.93

Record [dL][dK][dI][dR][dI][dH][dE][dH] [lkiriheh] . Reported VQIINK Inhibition IC50: 1.75

Record [dL][dE][dL][dK][dI][dK][dF][dW] [lelkikfw] . Reported VQIINK Inhibition IC50: 2.78

Record [dW][dR][dL][dR][dI][dH][dW][dW] [wrlrihww] . Reported VQIINK Inhibition IC50: 1.88

Record [dW][dD][dL][dK][dV][dR][dW] [wdlkvrw] . Reported VQIINK Inhibition IC50: 3.87

Record [dL][dR][dV][dQ][dV][dR][dL] [lrvqvrl] . Reported VQIINK Inhibition IC50: 1.48

Record [dT][dI][dK][dL][dV][dW] [tiklvw] . Reported VQIINK Inhibition IC50: 5.37

Record [dF][dE][dI][dR][dL][dW][dH][dH] [feirlwhh] . Reported VQIINK Inhibition IC50: 1.17

Record [dL][dK][dI][dNle][dI][dH][dY] [lkiuihy] . Reported VQIINK Inhibition IC50: 0.26

Record [dW][dW][dL][dK][dL][dR][dW] [wwlklrw] . Reported VQIINK Inhibition IC50: 1.99
